Reference source: a melting point compilation (Tetko et al.)

Exercise: for every item that follows, state its recorded melting point.

• COC(=O)c1ccc(C)nc1 = 34 to 37 °C
• NNC(=O)C(=O)NN = 239 to 243 °C
• COc1ccccc1C1CCNCC1 = 54 to 55 °C
• Cc1nc(-c2ccccc2)sc1C(=O)NN = 168 to 170 °C
• O=Cc1ccc(-c2ccc([N+](=O)[O-])cc2)o1 = 204 to 208 °C

Below is a list of molecules. For each, state its recorded melting point.
1. COc1c(Cl)cc(Cl)c(OC)c1C(N)=O
2. C/C(CCc1oc2ccc(Cl)cc2c1-c1ccc(C)o1)=N/O

Ans:
1: 148 to 149 °C; 2: 114 to 115 °C

Q: Reported melting point, molecule O=C(Cl)c1ccc(-c2ncccn2)cc1 : ____
Ans: 172 to 175 °C

* * *

measured-metric: melting point

Observe how each entry below is paired with its result.
- Clc1cc(-c2ccccc2)nc2ccccc12: 62 to 64 °C
- Cc1nccn1-c1ccccc1CN: 48 to 48.5 °C
- Clc1nccc(-c2cccs2)n1: 127 to 129 °C
- Nc1ccc(CN2CCCCC2)cc1: 87 to 88 °C
- OCc1cccc2c1OCCCO2: 47 to 48 °C

Below is a list of molecules. For each, state its recorded melting point.
1. CCCCCSc1ncccc1C(=O)O
2. O=CC1=C(Cl)c2cc(F)ccc2OC1
3. Nc1ccc(-c2cnco2)cc1
4. O=Cc1cccc2nsnc12
5. Cc1cc(C)c(CS)c(C)c1CS

Ans:
118 to 120 °C
84 to 86 °C
150 to 151 °C
99 to 101 °C
65 to 66 °C

Below is a list of molecules. For each, state its recorded melting point.
1. COc1cc(OC)c(Cl)cc1N
2. CC(C)(c1ccccc1)C(C)(C)c1ccccc1
3. NC(=O)C(N)c1ccccc1 (stereo not given)
4. O=C(O)c1ccc2c(c1)CCCN2
5. O=[N+]([O-])c1ccc(Cl)cc1CO

Ans:
89 to 92 °C
90 to 110 °C
125 to 129 °C
168 to 170 °C
77 to 82 °C

* * *

measured-metric: melting point

Observe how each entry below is paired with its result.
- CC(c1ccc(OC(F)=C(F)F)cc1)(c1ccc(OC(F)=C(F)F)cc1)c1ccc(OC(F)=C(F)F)cc1: 31 to 32 °C
- CCOC(=O)c1ccccc1O: 2 to 3 °C
- CSc1sc(Cl)c2c1C(=O)CC(C)(C)C2: 126 to 129 °C
- CCOC(=O)C12C(c3cc(Cl)ccc3OP1(=O)OCC)C1(C(=O)OCC)C2c2cc(Cl)ccc2OP1(=O)OCC (stereo not drawn): 256 to 258 °C
- O=C(O)C1Cc2cc(O)ccc2CN1 (racemic): 256 to 260 °C

Below is a list of compounds. For each, state its recorded melting point.
1. O=[N+]([O-])c1cccnc1Oc1ccc(Cl)cc1
2. CC1CCC(C(C)C)/C(=N\NC(N)=O)C1 (stereo not drawn)
3. COc1ccc(Br)c2c1C(=NNc1ccc([N+](=O)[O-])cc1[N+](=O)[O-])C2
4. CCCOc1c2cccc1Cc1cc(Br)cc(c1O)Cc1cccc(c1OCCC)Cc1cc(Br)cc(c1O)C2
5. COc1ccc(C(=O)/C=C(\C)c2ccc(OC)cc2)cc1
6. CCCc1c(C(=O)O)cnn1-c1ccccc1

Ans:
1. 89 to 90 °C
2. 216 to 217 °C
3. 288 to 289 °C
4. 307 to 309 °C
5. 86 to 87 °C
6. 107 to 110 °C

Below is a list of compounds. For each, state its recorded melting point.
1. O=C1NC(=O)C2(CCCCC2)N1
2. CN1CCOc2cc(C(=O)O)cnc21

Ans:
218 to 220 °C
232 to 280 °C

* * *

Exercise: for every item that follows, state its recorded melting point.
One number for each entry, in °C.

Below is a list of molecules. For each, state its recorded melting point.
1. Cc1cc(N=Nc2ccccc2)ccc1N=Nc1ccccc1
2. O=c1[nH]cc(C(F)(F)F)c(=O)[nH]1
3. CC12C=CC(CC1)C2(C)C (stereo unspecified)

Ans:
1. 109
2. 316
3. 113

Below is a list of molecules. For each, state its recorded melting point.
1. CCCCCCCCCCCCCCCCOCC(O)CO (stereo unspecified)
2. Cc1nc2cc(Cl)ccc2s1
3. NC(=O)CF
4. O=C1c2ccccc2C(=O)C1C(=O)C(c1ccccc1)c1ccccc1

Ans:
[64, 69, 108, 146]

* * *

measured-metric: melting point

• Cc1cc(Cl)ncc1[N+](=O)[O-] = 36 to 40 °C
• O=S(=O)(NC(=S)Nc1ccccc1)c1ccccc1 = 144 to 145 °C
• O=[N+]([O-])c1ccc2c(c1)OCCOCCOCCOCCO2 = 95 to 98 °C
• FC(F)(F)c1cc(Cl)ccc1I = 29 to 31 °C
• N#Cc1c(NC(=O)CCl)sc2c1CCCC2 = 179 to 180 °C

Q: Reported melting point, compound O=C1OCC(O)C1O (stereo unspecified) : ____
Ans: 99 to 102 °C

* * *

Exercise: for every item that follows, state its recorded melting point.

Observe how each entry below is paired with its result.
• O=C(O)c1ccc(C(=O)O)c([N+](=O)[O-])c1 = 270 to 272 °C
• Nc1noc2ccccc12 = 110 to 112 °C
• COc1cc2c(cc1OC)C(c1ccccc1)=NCC2 = 121 to 125 °C

Below is a list of compounds. For each, state its recorded melting point.
1. O=C(O)CSc1ccncc1
2. NCCCP(=O)(O)O
3. OCc1cccc(Cn2cncn2)c1
4. CC(C)(C)NC[C@H](O)CO

Ans:
251 to 255 °C
290 to 294 °C
56 to 59 °C
85 to 89 °C

Q: Reported melting point, compound OCc1ccc(-c2cccs2)s1 : ____
Ans: 51 to 54 °C

* * *

Rule: melting point of 100 °C or more gives Condition met; anything lower gives Condition not met.

* CC(=O)Nc1ccc(N=Nc2ccc([N+]([O-])=Nc3ccc(NC(C)=O)cc3)cc2)cc1 | Condition met
* O=C1/C(=N\Nc2ccc(Br)cc2)C(C(F)(F)F)=NN1c1ccccc1 | Condition met
* O=C(O)c1cc(F)cc(Br)c1 | Condition met
* COC(=O)c1cc(C(=O)OC)cc([N+](=O)[O-])c1 | Condition met
* CN(C)C(C)(C)CO | Condition not met

Q: Hi, just wondering whether OCc1ccc2ccccc2c1 shows melting point of 100 °C or higher.
Ans: Condition not met

Q: Try the molecule Nc1ccc(N)cc1
Ans: Condition met

* * *

measured-metric: melting point

• Cc1oc(-c2ccccc2)nc1CC(=O)O = 131 to 133 °C

Below is a list of molecules. For each, state its recorded melting point.
1. COc1ccc(CNC(N)=S)cc1
2. Cc1nn(-c2ccccc2)nc1CO
3. COc1ccc(CCN)cc1OC

Ans:
["135 to 137 °C", "75 to 76 °C", "12 to 15 °C"]

Below is a list of molecules. For each, state its recorded melting point.
1. Nc1ncccc1C(=O)O
2. NNC(=O)C12CC3CC(CC(C3)C1)C2

Ans:
295 to 297 °C
151 to 153 °C

* * *

Exercise: for every item that follows, state its recorded melting point.

- Nc1ccc(C(=O)O)c(Cl)c1: 210 to 215 °C
- Cc1nc(-c2cccc(N=C=O)c2)no1: 72 to 74 °C
- Oc1noc2nc3ccccc3nc12: 320 to 325 °C
- CC(=O)c1c(-c2ccc(Cl)cc2)noc1C: 56 to 59 °C

Below is a list of compounds. For each, state its recorded melting point.
1. CCC12CC3CC(C1)CC(C(=O)O)(C3)C2
2. N#Cc1cccc(Cn2cncn2)c1

Ans:
1. 94 to 96 °C
2. 91 to 92 °C

* * *

measured-metric: melting point (°C)
Answers are plain numbers, in °C.

Observe how each entry below is paired with its result.
- CC(C)OC(=O)C1(S(=O)(=O)c2ccc([N+](=O)[O-])cc2)CCC1: 65.5
- Cn1c(=O)oc(=O)c2ccccc21: 165
- Nc1ccc(C(=O)NCCC(=O)O)cc1: 152

Okay, next one:
Q: Reported melting point, compound OCC1(CO)CC=CCC1 : ____
Ans: 88.5

* * *

measured-metric: melting point (°C)
Numbers only, in °C.

• S=C(/N=N/c1ccccc1)NNc1ccccc1 = 168
• CCN(CC)c1ccc(C=O)c(O)c1 = 62
• C=C1CCC2OC2(C)CCC2C1CC2(C)C (single isomer, unassigned; (-)) = 62.5
• CN(C)c1ccc(C2CC(c3ccc4ccccc4c3)=NN2c2ccccc2)cc1 (centres undefined) = 186

Below is a list of compounds. For each, state its recorded melting point.
1. NCC(=O)NO
2. C=C(C)C(=O)Nc1ccc(Cl)c(Cl)c1
3. ICCCCCCCCCCI
4. CCOC(=O)/C(=N\Nc1ccc([N+](=O)[O-])cc1)C(=O)C(F)(F)F
5. O=C(Nc1ccccc1SSc1ccccc1NC(=O)c1ccccc1)c1ccccc1
6. CCOC(=O)COc1cc(Cl)c(Cl)cc1Cl

Ans:
[156, 128, 30, 184, 142, 64]
